The reported numbers originate from ChEMBL document CHEMBL4513216.

PROTOCOL DETAILS: Toxicity liver stage against HepG2, at 10uM
Assay type: cell-based
Parameters: test concentration 10 uM, cell line HepG2-A16-CD81EGFP
APPLIED CONDITIONS: human, HepG2-A16-CD81EGFP cells; read-out: INHIBITION
This section presents molecules with their documented cytotoxicity at 10 µM values.
PROPERTY LABEL: cytotoxicity at 10 µM (%)

molecule="COCC(=O)NC(c1ccc(Cl)cc1)c1noc(C)n1 (stereo unspecified)" scale_unit=% experimental_result=6.66
molecule="CC(Cn1cccn1)NCC(=O)NC1(C#N)CCCCC1 (stereo unspecified)" scale_unit=% experimental_result=-3.6
molecule="Cc1nc(C)n(CC2CN(CCOc3cccc(F)c3)CCO2)n1 (stereo unspecified)" scale_unit=% experimental_result=-12.7
molecule=Cn1ccc2c(ccn2CC(=O)Nc2ccc(Br)cc2)c1=O scale_unit=% experimental_result=10.4
molecule=O=C(NCc1cccc(-n2cncn2)c1)NCC(C1CC1)C1CC1 scale_unit=% experimental_result=6.03
molecule="O=C1N(c2ccsc2)CCC12CCCN(c1ncc(F)cn1)C2 (stereo unspecified)" scale_unit=% experimental_result=-105
molecule="Clc1snnc1CN1CCCC(Cn2cncn2)C1 (stereo unspecified)" scale_unit=% experimental_result=-7.67
molecule=Cn1cc(CN2C[C@@H]3OCCN(c4ncccn4)[C@@H]3C2)cn1 scale_unit=% experimental_result=-75.1
molecule="O=C(c1ccc(F)cc1)N1CCOC(c2nc(-c3ncccn3)no2)C1 (stereo unspecified)" scale_unit=% experimental_result=-12.4
molecule=CCN(c1ccsc1C(=O)N1CCC(C)CC1)S(=O)(=O)c1ccccc1 scale_unit=% experimental_result=14.7
molecule="O=C(NC1CCCC1)N1CCCC(c2nccn2Cc2ccncc2)C1 (stereo unspecified)" scale_unit=% experimental_result=-18.3

----------
PROTOCOL DETAILS: Toxicity liver stage against HepG2, at 10uM
Assay type: cell-based
Set-up: test concentration 10 uM, cell line HepG2-A16-CD81EGFP
APPLIED CONDITIONS: human, HepG2-A16-CD81EGFP cells; read-out: INHIBITION
cytotoxicity at 10 µM values by entry
PROPERTY LABEL: cytotoxicity at 10 µM (%)

molecule=COc1ccccc1N1CCN(Cc2cnc3c(c2)c(C)nn3C)CC1 scale_unit=% experimental_result=-0.949
molecule="COCCC(=O)N1CCCC2(CCC(=O)N2CCOC)CC1 (stereo not given)" scale_unit=% experimental_result=2.52
molecule=Cc1cnccc1N1CCN(c2nccc(CCC(F)(F)F)n2)CC1 scale_unit=% experimental_result=4.91
molecule="COc1ccc(CCN2CCCC(Cn3nc(C)nc3C)C2)cc1 (stereo not given)" scale_unit=% experimental_result=-3.34
molecule="CC(C(=O)N1CCCCC1)n1nc(-c2cccs2)cc(N)c1=O (stereo not given)" scale_unit=% experimental_result=10.8
molecule="Cc1noc(C2CCCN(C(=O)c3cc(-c4ccccc4)on3)C2)n1 (stereo not given)" scale_unit=% experimental_result=-7.14
molecule="CCc1csc(C2CCCN(C(=O)c3ccnc(N(C)C)c3)C2)n1 (stereo not given)" scale_unit=% experimental_result=-6.81
molecule=CC(=O)NCC(=O)N1CCc2[nH]c(-c3ccccc3)nc2C1 scale_unit=% experimental_result=-0.591
molecule=Cc1cc(C)n(CCCN(CCN2CCOCC2)Cc2ccco2)n1 scale_unit=% experimental_result=8.97
molecule=CCN(Cc1ccc2c(c1)OCO2)Cc1nc(C)no1 scale_unit=% experimental_result=-6.49
molecule="CC(C)c1ncc(CN2CCC(CO)C2)cn1 (stereo not given)" scale_unit=% experimental_result=-25.8
molecule=CC(C)c1n[nH]c(C(=O)Nc2ccnn2C(C)C)c1Br scale_unit=% experimental_result=13.8
molecule="COc1cc(C2Nc3cc(Cl)ccc3C3=NCCN32)ccc1O (stereo not given)" scale_unit=% experimental_result=-29.3
molecule=CS(=O)(=O)c1nccn1Cc1ccc(OC(F)F)cc1 scale_unit=% experimental_result=-0.627
molecule=O=C(NS(=O)(=O)Cc1ccon1)c1ccsc1 scale_unit=% experimental_result=-14.2
molecule=COc1ccc(CNC2CCN(CCc3ccncc3)CC2)cc1O scale_unit=% experimental_result=-10.5
molecule="CCn1cc(CN2CCC(c3[nH]ncc3S(C)(=O)=O)C2)cn1 (stereo not given)" scale_unit=% experimental_result=-2.33
molecule="Cc1ncsc1CN1CCOC(C)(C(=O)N(C)C)C1 (stereo not given)" scale_unit=% experimental_result=12.1
molecule=Cn1cnc2cc(C(=O)NS(=O)(=O)CC3CCCC3)ccc21 scale_unit=% experimental_result=-3.2
molecule="O=C(C1CCOC1)N1CCC2(CC1)COCCN(Cc1ccncc1)C2 (stereo not given)" scale_unit=% experimental_result=-86
molecule=CN(C)CCN1CCC2(CC1)CN(c1cccnc1)C(=O)CO2 scale_unit=% experimental_result=1.7
molecule="Cc1csc(C2CCCCN2C(=O)c2cn[nH]c2C)n1 (stereo not given)" scale_unit=% experimental_result=-1.53
molecule="CCc1noc(CN(C)CC(c2cccs2)N2CCOCC2)n1 (stereo not given)" scale_unit=% experimental_result=-4.56
molecule=CC[C@@H]1N(C)CCC[C@]12CCC(=O)N2Cc1ccncc1 scale_unit=% experimental_result=3.67
molecule=O=S(=O)(c1ccccc1)N1CCCN(CCCn2ccnc2)CC1 scale_unit=% experimental_result=-9.17

----------
PROTOCOL DETAILS: Toxicity liver stage against HepG2, at 10uM
Format: cell-based
Design: test concentration 10 uM, cell line HepG2-A16-CD81EGFP
APPLIED CONDITIONS: human, HepG2-A16-CD81EGFP cells; read-out: INHIBITION
PROPERTY LABEL: cytotoxicity at 10 µM

compound="Cc1cscc1C(=O)NC1CC(=O)N(C(C)C)C1=O (configuration not stated)" experimental_result=-6.51%
compound="CN1CCOCC2(CCCN(C(=O)c3ccc(-n4cccc4)cc3)C2)C1 (configuration not stated)" experimental_result=-98%
compound="Cn1cc(CN2CCC3(CC2)NC(=O)CC3c2ccncc2)cn1 (configuration not stated)" experimental_result=-2.1%
compound="Cc1nnc(CN(C)CC(=O)N2CCCC(C(F)(F)F)C2)n1C (configuration not stated)" experimental_result=4.49%
compound="Cc1nc(N2CCCC(N3CCCC3)C2)c2cnn(C)c2n1 (configuration not stated)" experimental_result=-4.07%
compound="CC(O)CN1CCC(CNCc2c[nH]nc2C(C)(C)C)CC1 (configuration not stated)" experimental_result=-8.55%
compound=COc1ccc(-c2nc(CN3CC(n4cc(C)cn4)C3)no2)cc1 experimental_result=-14.9%
compound=CCCc1nc(N2CCCN(c3ccncc3)CC2)c2cnn(C)c2n1 experimental_result=-2.47%
compound=CCn1c(CN(C)C)nnc1C1CCN(Cc2ccccc2)CC1 experimental_result=-11.6%
compound=O=C(C1CCN(c2ncnc3cccc(F)c23)CC1)N1CCCC1 experimental_result=3.76%
compound=CC(=O)Nc1nc(C(=O)NCCOc2ccc(C)cc2)cs1 experimental_result=5.35%
compound="CNC(=O)C1CN(c2ccnc(C)n2)CCN1Cc1ccccc1 (configuration not stated)" experimental_result=8.48%

----------
PROTOCOL DETAILS: Toxicity liver stage against HepG2, at 10uM
Assay type: cell-based
Set-up: test concentration 10 uM, cell line HepG2-A16-CD81EGFP
APPLIED CONDITIONS: human, HepG2-A16-CD81EGFP cells; read-out: INHIBITION
The entries below come with measured cytotoxicity at 10 µM values attached.
PROPERTY LABEL: cytotoxicity at 10 µM

molecule="Cc1noc(C)c1C1CCCN1C(=O)CN1C(=O)OC(C)(C)C1=O (stereo unspecified)" property_label="cytotoxicity at 10 µM" experimental_result=-2.57%
molecule="COCc1cnc2n1CCN(C(=O)C1=CCCC1)C2C (stereo unspecified)" property_label="cytotoxicity at 10 µM" experimental_result=2.75%
molecule=CN1[C@H](CN2CCCC2)C[C@@H]2CN(C(=O)c3cccn3C)CC[C@@H]21 property_label="cytotoxicity at 10 µM" experimental_result=5.57%
molecule="Cn1cc(-c2ncnc3c2CCN(CC2CCOC2)CC3)cn1 (stereo unspecified)" property_label="cytotoxicity at 10 µM" experimental_result=-112%
molecule=CCS(=O)(=O)NC[C@]12COC[C@H]1CN(Cc1cccnc1OC)C2 property_label="cytotoxicity at 10 µM" experimental_result=1.97%
molecule="CCN1CC2(CC1=O)CN(Cc1cnn(C)c1)CCN(C(=O)C(C)C)C2 (stereo unspecified)" property_label="cytotoxicity at 10 µM" experimental_result=-15%
molecule="Cn1nccc1C(=O)N1CCOC(Cc2ccc(Cl)cc2)C1 (stereo unspecified)" property_label="cytotoxicity at 10 µM" experimental_result=-26%
molecule="CN(C)CC1CN(Cc2cccc(C(=O)N(C)C)c2)CCO1 (stereo unspecified)" property_label="cytotoxicity at 10 µM" experimental_result=-0.729%
molecule=CCN(CC)Cc1nc2c(o1)CN(S(=O)(=O)c1cccs1)C2 property_label="cytotoxicity at 10 µM" experimental_result=-117%
molecule="Cc1ccc(C2CCCN2S(=O)(=O)N(C)Cc2nccn2C)o1 (stereo unspecified)" property_label="cytotoxicity at 10 µM" experimental_result=-0.787%
molecule=Cc1cccc(-c2noc(CN3CCC(N4CCNC4=O)CC3)n2)c1 property_label="cytotoxicity at 10 µM" experimental_result=5.34%
molecule="COC(=O)CCCN(C)C(c1cccnc1)c1ccc(F)cc1F (stereo unspecified)" property_label="cytotoxicity at 10 µM" experimental_result=-0.665%
molecule=Cc1cc2c(=O)n3c(nc2s1)CCN(Cc1c[nH]cn1)CC3 property_label="cytotoxicity at 10 µM" experimental_result=-17.6%
molecule=CC(C)c1cc(C(=O)NCCN2CCCS2(=O)=O)n[nH]1 property_label="cytotoxicity at 10 µM" experimental_result=-9.91%
molecule=Cc1sc2ncc(-c3ccnc(NC4CCN(C)CC4)n3)c(=O)n2c1C property_label="cytotoxicity at 10 µM" experimental_result=-7.75%
molecule=Cc1[nH]nc(-c2ccc(F)cc2)c1CC(=O)NCC1CCOCC1 property_label="cytotoxicity at 10 µM" experimental_result=-0.707%
molecule=N#Cc1cn(C2CC2)c(=O)n(Cc2cc(-c3cccs3)on2)c1=O property_label="cytotoxicity at 10 µM" experimental_result=0.38%
molecule="CC(CNC(=O)c1cn(-c2ccccc2)nn1)Cn1cccn1 (stereo unspecified)" property_label="cytotoxicity at 10 µM" experimental_result=-41.6%
molecule=CCc1ccc(S(=O)(=O)Nc2cnc(N3CCOCC3)nc2)cc1 property_label="cytotoxicity at 10 µM" experimental_result=-7.72%
molecule="c1ccc(OCc2cscn2)c(CNC2CCc3ncnn3C2)c1 (stereo unspecified)" property_label="cytotoxicity at 10 µM" experimental_result=-9.42%
molecule=CS(=O)(=O)c1ccc(OCCNCc2c(F)cccc2F)cc1 property_label="cytotoxicity at 10 µM" experimental_result=-7.12%
molecule=Nc1nccc(N2C[C@@H](CN3CCCCC3)[C@@H](CO)C2)n1 property_label="cytotoxicity at 10 µM" experimental_result=-2.16%
molecule=O=S1(=O)NC(c2ccnc(N3CCCC3)n2)=Nc2ccccc21 property_label="cytotoxicity at 10 µM" experimental_result=12.8%
molecule=c1ccc2c(c1)nc1n2[C@@H](CNCc2nccs2)COC1 property_label="cytotoxicity at 10 µM" experimental_result=-1.4%
molecule=CCOC(=O)Cn1c(=O)[nH]c2cn(-c3ccccc3)c(=O)n21 property_label="cytotoxicity at 10 µM" experimental_result=0.379%
molecule="Cc1ccccc1CN1CCC2(COCc3cnc(N(C)C)nc32)C1 (stereo unspecified)" property_label="cytotoxicity at 10 µM" experimental_result=-8.22%
molecule="CC(Cc1cn(CCc2nnn[nH]2)nn1)c1ccccc1 (stereo unspecified)" property_label="cytotoxicity at 10 µM" experimental_result=3.78%
molecule=Cc1occc1C(=O)N1C[C@@H]2CCCO[C@@H]2[C@H](NS(C)(=O)=O)C1 property_label="cytotoxicity at 10 µM" experimental_result=-95.3%
molecule=Cc1ccc(C(=O)NCCCNS(C)(=O)=O)cc1-n1cccc1 property_label="cytotoxicity at 10 µM" experimental_result=-10%
molecule=CNC(=O)CC1CCN(C(=O)Nc2ccc(-c3cc[nH]n3)cc2)CC1 property_label="cytotoxicity at 10 µM" experimental_result=6.8%
molecule=CC(C)N(C)S(=O)(=O)N(C)Cc1cnn(C)c1 property_label="cytotoxicity at 10 µM" experimental_result=7.2%
molecule="COCC1CN(C(=O)c2cccs2)Cc2nccn2C1 (stereo unspecified)" property_label="cytotoxicity at 10 µM" experimental_result=-104%
molecule="Cc1csc(C(Cc2cccs2)NCc2cc3c(cc2C)OCO3)n1 (stereo unspecified)" property_label="cytotoxicity at 10 µM" experimental_result=-8.9%
molecule=COc1ccc(-c2cc3nn(CC(=O)NC(C)C)c(=O)n3c(C)n2)cc1 property_label="cytotoxicity at 10 µM" experimental_result=1.81%
molecule=CCOc1c(C(N)=O)cn(C)c1-c1nc2cc(NC(C)=O)ccc2n1C property_label="cytotoxicity at 10 µM" experimental_result=-46.9%
molecule="O=C(CN1CC(c2nc(-c3cccs3)no2)C1)NCC1CCCO1 (stereo unspecified)" property_label="cytotoxicity at 10 µM" experimental_result=-1.47%
molecule="CC(Oc1ccccc1)C(=O)N1CCCN(Cc2cscn2)CC1 (stereo unspecified)" property_label="cytotoxicity at 10 µM" experimental_result=-3.92%
molecule=CN(CCOc1ccccc1F)S(=O)(=O)CC1CCOCC1 property_label="cytotoxicity at 10 µM" experimental_result=6.47%
molecule=Cc1cccnc1CN1CCN(C(=O)[C@@]23CNC[C@@H]2CN(C)C3)CC1 property_label="cytotoxicity at 10 µM" experimental_result=2.3%
molecule=CCOc1ccc(NCC(=O)NCC(=O)N2CCCC2)c(C(F)(F)F)c1 property_label="cytotoxicity at 10 µM" experimental_result=-12.8%
molecule=O=C(CN1CCOCC1)Nc1ccc(C(F)(F)F)cc1Cl property_label="cytotoxicity at 10 µM" experimental_result=4.72%
molecule=CCn1cc(CN(C)S(=O)(=O)c2ccc(NC(C)=O)cc2)cn1 property_label="cytotoxicity at 10 µM" experimental_result=9.22%
molecule=CCCN(C)c1ccc(C(=O)Nc2c(C)nn(C(C)C)c2C)cc1 property_label="cytotoxicity at 10 µM" experimental_result=-2.84%
molecule="CC(=O)NCC(=O)N1Cc2nccn2CC(CN2CCCC2)C1 (stereo unspecified)" property_label="cytotoxicity at 10 µM" experimental_result=2.34%
molecule=CCOCCCNC(=O)c1nn(CC)cc1Br property_label="cytotoxicity at 10 µM" experimental_result=1.77%
molecule="COc1ccc2c(c1)OCC(CNC(=O)NC(C)(C)C)C2 (stereo unspecified)" property_label="cytotoxicity at 10 µM" experimental_result=-8.54%
